Value source: the supplement of paper PMC10724198

tested on: Saccharomyces cerevisiae; assay: protein stability index of tFT-peptide fusion (C-terminal peptide) (PSI (0-1 scale)); higher = more stable (slower turnover); conditions: genetic background: wild type; temperature: 37 C
reported_endpoint: protein stability index

Quick one: give measured protein stability index for `MSIWKIFIWRLG`
0.269

Quick one: give measured protein stability index for `PALLLFLRNLLL`
0.542

Quick one: give measured protein stability index for `LCGGEWVVWVKG`
0.477

Quick one: give measured protein stability index for `WFALFYFLVSAF`
0.254

Quick one: give measured protein stability index for `GGRWRRRGFFFS`
0.673

Quick one: give measured protein stability index for `GVCLGFICVGFC`
0.522

Quick one: give measured protein stability index for `VGVSCLVFFGVV`
0.633

Quick one: give measured protein stability index for `GFVSLFRLFIRL`
0.36

Quick one: give measured protein stability index for `WILIGVRFSCFG`
0.276

Quick one: give measured protein stability index for `SYFASLLDLFTA`
0.759

Quick one: give measured protein stability index for `FLPSLSLPLLLF`
0.479

Quick one: give measured protein stability index for `MLECIIHLTITR`
0.491

Quick one: give measured protein stability index for `VLDFSVPRHVLH`
0.747

Quick one: give measured protein stability index for `FYLFPSLPLLLL`
0.46

Quick one: give measured protein stability index for `LLMWVLFDCHYS`
0.535

Quick one: give measured protein stability index for `VLLRSRLLRRLS`
0.235

Quick one: give measured protein stability index for `FYFMGFFFGLGM`
0.597

Quick one: give measured protein stability index for `VYWRGLHLQRLL`
0.475

Quick one: give measured protein stability index for `FGVRRSFVVFVV`
0.107

----------
test system: Saccharomyces cerevisiae; test: protein stability index of tFT-peptide fusion (C-terminal peptide) (PSI (0-1 scale)); higher = more stable (slower turnover); details: genetic background: das1 deletion; temperature: 30 C
reported_endpoint: protein stability index
# respond with the number and nothing more

Quick one: give measured protein stability index for NHFHYDCVYRYC [YOR333C C-terminal 12 aa]
0.694

Quick one: give measured protein stability index for IQKDSMVHPGKK [VAC7 C-terminal 12 aa]
0.669

Quick one: give measured protein stability index for DIRAHLAEYYSF [PAU7 C-terminal 12 aa]
0.728

Quick one: give measured protein stability index for KHIDYRHAPGNI [RRN10 C-terminal 12 aa]
0.688

Quick one: give measured protein stability index for AIFLFLVGLFMK [UBC6 C-terminal 12 aa]
0.289

Quick one: give measured protein stability index for LSKDGIYTAIPK [PAU15 C-terminal 12 aa]
0.685

Quick one: give measured protein stability index for IKETIQRLTDDR [GMC2 C-terminal 12 aa]
0.661

Quick one: give measured protein stability index for TANKAGNKFQLS [LDO16 C-terminal 12 aa]
0.707

Quick one: give measured protein stability index for LQPMEAFKYDRS [BIO2 C-terminal 12 aa]
0.71

Quick one: give measured protein stability index for GEYYNLIVPSLD [YGK3 C-terminal 12 aa]
0.721

Quick one: give measured protein stability index for APHVLNDLLLKF [PGA1 C-terminal 12 aa]
0.711

Quick one: give measured protein stability index for VRKNVTWNNLWE [CTF18 C-terminal 12 aa]
0.705

Quick one: give measured protein stability index for FTFIIIQLFPAL [USE1 C-terminal 12 aa]
0.351

Quick one: give measured protein stability index for RYKILDLIISKL [UTP6 C-terminal 12 aa]
0.789

Quick one: give measured protein stability index for FASPTLSFFFPI [YGL149W C-terminal 12 aa]
0.724

Quick one: give measured protein stability index for DDYAQYLDQDSD [MAK21 C-terminal 12 aa]
0.715

Quick one: give measured protein stability index for IRLLTYLLRKIE [YLR230W C-terminal 12 aa]
0.654

Quick one: give measured protein stability index for KSEIDTLKQDQK [TYE7 C-terminal 12 aa]
0.656

Quick one: give measured protein stability index for PMIWHLVKKQWK [TOM5 C-terminal 12 aa]
0.686

Quick one: give measured protein stability index for IDSIDDLVDSDT [NPP1 C-terminal 12 aa]
0.691

Quick one: give measured protein stability index for ADETVDFYVYDE [SWD2 C-terminal 12 aa]
0.744

Quick one: give measured protein stability index for SFFCRSSSKSSK [YSC83 C-terminal 12 aa]
0.723

Quick one: give measured protein stability index for HETMVNGSKRRL [DIF1 C-terminal 12 aa]
0.686

Quick one: give measured protein stability index for LSDSHYELNAES [PMT5 C-terminal 12 aa]
0.712

Quick one: give measured protein stability index for NQTSFSRDRLRR [RRD1 C-terminal 12 aa]
0.702
